# maps each entry to its deltaG
test system: Human immunodeficiency virus 1; assay: Binding affinity to HIV1 YU-2 gp120 assessed as change in gibbs free energy by isothermal titration calorimetric analysis
Numbers only; they are read as kcal/mol.

Known results for compounds:
item_smiles=CNCc1ccc2c(c1)[C@H](NC(=O)C(=O)Nc1ccc(Cl)c(F)c1)[C@@H](CNC(=N)N)C2 system_tested="Human immunodeficiency virus 1" measurement_kind=deltaG units_of_measure=kcal/mol observed_value=-10.4
item_smiles=CNCc1ccc2c(c1)C[C@@H](CNC(=N)N)[C@@H]2NC(=O)C(=O)Nc1ccc(Cl)c(F)c1 system_tested="Human immunodeficiency virus 1" measurement_kind=deltaG units_of_measure=kcal/mol observed_value=-8.1
item_smiles=CNCc1ccc2c(c1)C[C@H](CNC(=N)N)[C@H]2NC(=O)C(=O)Nc1ccc(Cl)c(F)c1 system_tested="Human immunodeficiency virus 1" measurement_kind=deltaG units_of_measure=kcal/mol observed_value=-10
item_smiles=CN(Cc1ccc2c(c1)[C@H](NC(=O)C(=O)Nc1ccc(Cl)c(F)c1)[C@@H](CNC(=N)N)C2)C(=N)N system_tested="Human immunodeficiency virus 1" measurement_kind=deltaG units_of_measure=kcal/mol observed_value=-9.6
item_smiles=CN(Cc1ccc2c(c1)C[C@H](CNC(=N)N)[C@H]2NC(=O)C(=O)Nc1ccc(Cl)c(F)c1)C(=N)N system_tested="Human immunodeficiency virus 1" measurement_kind=deltaG units_of_measure=kcal/mol observed_value=-9.6
item_smiles=CNCc1ccc2c(c1)[C@@H](NC(=O)C(=O)Nc1ccc(Cl)c(F)c1)[C@H](CNC(=N)N)C2 system_tested="Human immunodeficiency virus 1" measurement_kind=deltaG units_of_measure=kcal/mol observed_value=-7.5

input: I am curious: what deltaG value has been reported for N=C(N)NC[C@H]1Cc2ccccc2[C@@H]1NC(=O)C(=O)Nc1ccc(Cl)c(F)c1 ?
output: -9.5

====

# key: entry, value: deltaH
tested on: Human immunodeficiency virus 1; test: Binding affinity to HIV1 YU-2 gp120 assessed as change in enthalpy by isothermal titration calorimetric analysis
The reply should consist of the numeric value with the unit placed after it.

Recorded deltaH, per entry:
item_smiles=CNCc1ccc2c(c1)C[C@H](CNC(=N)N)[C@H]2NC(=O)C(=O)Nc1ccc(Cl)c(F)c1 system_tested="Human immunodeficiency virus 1" measurement_kind=deltaH observed_value="-86.6 kJ/mol"
item_smiles=N=C(N)NC[C@H]1Cc2ccccc2[C@@H]1NC(=O)C(=O)Nc1ccc(Cl)c(F)c1 system_tested="Human immunodeficiency virus 1" measurement_kind=deltaH observed_value="-74.9 kJ/mol"
item_smiles=CN(Cc1ccc2c(c1)C[C@H](CNC(=N)N)[C@H]2NC(=O)C(=O)Nc1ccc(Cl)c(F)c1)C(=N)N system_tested="Human immunodeficiency virus 1" measurement_kind=deltaH observed_value="-64.4 kJ/mol"
item_smiles=CNCc1ccc2c(c1)C[C@@H](CNC(=N)N)[C@@H]2NC(=O)C(=O)Nc1ccc(Cl)c(F)c1 system_tested="Human immunodeficiency virus 1" measurement_kind=deltaH observed_value="-55.2 kJ/mol"

input: Give the measured deltaH of CNCc1ccc2c(c1)[C@H](NC(=O)C(=O)Nc1ccc(Cl)c(F)c1)[C@@H](CNC(=N)N)C2 .
output: -118 kJ/mol

input: Would you kindly repeat that for CNCc1ccc2c(c1)[C@@H](NC(=O)C(=O)Nc1ccc(Cl)c(F)c1)[C@H](CNC(=N)N)C2 ?
output: -47.3 kJ/mol

input: Another: CN(Cc1ccc2c(c1)[C@H](NC(=O)C(=O)Nc1ccc(Cl)c(F)c1)[C@@H](CNC(=N)N)C2)C(=N)N
output: -59.4 kJ/mol

====

test system: Human immunodeficiency virus 1; test: Antiviral activity against HIV1 pseudotyped with A-MLV envelop glycoprotein infected in dog Cf2Th/CD4-CCR5 cells assessed as inhibition of viral entry incubated for 30 mins prior to infection and measured after 48 hrs post infection by luciferase reporter gene assay; assay type: functional, organism-based; conditions: Human immunodeficiency virus 1, Cf2Th-CCR5
pIC50: −log10 of the molar value.
Reported pIC50 values follow for various compounds

Field: example entries. Status: answers known.
item_smiles=CNCc1ccc2c(c1)[C@H](NC(=O)C(=O)Nc1ccc(Cl)c(F)c1)[C@@H](CNC(=N)N)C2 observed_value="< 4.00"
item_smiles=CN(Cc1ccc2c(c1)C[C@H](CNC(=N)N)[C@H]2NC(=O)C(=O)Nc1ccc(Cl)c(F)c1)C(=N)N observed_value="< 4.00"
item_smiles=CNCc1ccc2c(c1)C[C@@H](CNC(=N)N)[C@@H]2NC(=O)C(=O)Nc1ccc(Cl)c(F)c1 observed_value="< 4.00"
item_smiles=CN(Cc1ccc2c(c1)[C@H](NC(=O)C(=O)Nc1ccc(Cl)c(F)c1)[C@@H](CNC(=N)N)C2)C(=N)N observed_value=4.08
item_smiles=N=C(N)NC[C@H]1Cc2ccccc2[C@@H]1NC(=O)C(=O)Nc1ccc(Cl)c(F)c1 observed_value=4.03

input: For the compound shown here, CNCc1ccc2c(c1)[C@@H](NC(=O)C(=O)Nc1ccc(Cl)c(F)c1)[C@H](CNC(=N)N)C2 , give the reported pIC50.
output: < 4.00

input: Field entry: CNCc1ccc2c(c1)C[C@H](CNC(=N)N)[C@H]2NC(=O)C(=O)Nc1ccc(Cl)c(F)c1
output: < 4.00

====

As shown below, each of these compounds has a reported -TdeltaS value.
system: Human immunodeficiency virus 1; assay: Binding affinity to HIV1 YU-2 gp120 assessed as change in entropy by isothermal titration calorimetric analysis
State just the number; it will be interpreted in kcal/mol.

Consider the worked cases shown below.
item_smiles=CNCc1ccc2c(c1)C[C@@H](CNC(=N)N)[C@@H]2NC(=O)C(=O)Nc1ccc(Cl)c(F)c1 measurement_kind=-TdeltaS observed_value=5.1
item_smiles=CNCc1ccc2c(c1)[C@@H](NC(=O)C(=O)Nc1ccc(Cl)c(F)c1)[C@H](CNC(=N)N)C2 measurement_kind=-TdeltaS observed_value=3.8
item_smiles=N=C(N)NC[C@H]1Cc2ccccc2[C@@H]1NC(=O)C(=O)Nc1ccc(Cl)c(F)c1 measurement_kind=-TdeltaS observed_value=8.4

Pending compound:
input: Reported -TdeltaS for CNCc1ccc2c(c1)[C@H](NC(=O)C(=O)Nc1ccc(Cl)c(F)c1)[C@@H](CNC(=N)N)C2 : what is it?
output: 17.8

====

Property: pKd; scope: individual compounds
assay: Binding affinity to HIV1 YU-2 gp120 by isothermal titration calorimetric analysis; set-up: species or system Human immunodeficiency virus 1
To interpret pKd, take it as minus log10 of a concentration measured in moles per litre.

input: Entry under review: CNCc1ccc2c(c1)C[C@@H](CNC(=N)N)[C@@H]2NC(=O)C(=O)Nc1ccc(Cl)c(F)c1 . Reported pKd?
output: 5.92

input: Repeat for the following compound: CNCc1ccc2c(c1)[C@@H](NC(=O)C(=O)Nc1ccc(Cl)c(F)c1)[C@H](CNC(=N)N)C2
output: 5.47

====

Recorded pIC50 for the following molecules
test system: Human immunodeficiency virus 1; assay: Antiviral activity against HIV1 JRFL infected in dog Cf2Th/CD4-CCR5 cells assessed as inhibition of viral entry incubated for 30 mins prior to infection and measured after 48 hrs post infection by luciferase reporter gene assay; format: functional, organism-based; details: Human immunodeficiency virus 1, JRFL
pIC50 (log units): -log10 of the concentration in mol/L.

Some molecules with recorded pIC50:
item_smiles=CNCc1ccc2c(c1)C[C@H](CNC(=N)N)[C@H]2NC(=O)C(=O)Nc1ccc(Cl)c(F)c1 measurement_kind=pIC50 observed_value=4.84
item_smiles=CN(Cc1ccc2c(c1)C[C@H](CNC(=N)N)[C@H]2NC(=O)C(=O)Nc1ccc(Cl)c(F)c1)C(=N)N measurement_kind=pIC50 observed_value=5.21
item_smiles=CN(Cc1ccc2c(c1)[C@H](NC(=O)C(=O)Nc1ccc(Cl)c(F)c1)[C@@H](CNC(=N)N)C2)C(=N)N measurement_kind=pIC50 observed_value=4.71
item_smiles=N=C(N)NC[C@H]1Cc2ccccc2[C@@H]1NC(=O)C(=O)Nc1ccc(Cl)c(F)c1 measurement_kind=pIC50 observed_value=4.18

input: Can you share its pIC50? I mean this molecule: CNCc1ccc2c(c1)[C@H](NC(=O)C(=O)Nc1ccc(Cl)c(F)c1)[C@@H](CNC(=N)N)C2
output: 4.43

====

tested on: Human immunodeficiency virus 1; assay: Antiviral activity against HIV1 YU-2 infected in dog Cf2Th/CD4-CCR5 cells assessed as inhibition of viral entry incubated for 30 mins prior to infection and measured after 48 hrs post infection by luciferase reporter gene assay; assay type: functional, organism-based; conditions: Human immunodeficiency virus 1, YU-2, Cf2Th-CCR5
We begin with a simple list: items and their reported pIC50.
A value of pIC50 is the negative decimal logarithm of a concentration given in moles per litre.

Check out these entries, answers already filled in.
item_smiles=CN(Cc1ccc2c(c1)[C@H](NC(=O)C(=O)Nc1ccc(Cl)c(F)c1)[C@@H](CNC(=N)N)C2)C(=N)N observed_value=5.80
item_smiles=N=C(N)NC[C@H]1Cc2ccccc2[C@@H]1NC(=O)C(=O)Nc1ccc(Cl)c(F)c1 observed_value=5.42

input: Return reported pIC50; argument: CNCc1ccc2c(c1)C[C@@H](CNC(=N)N)[C@@H]2NC(=O)C(=O)Nc1ccc(Cl)c(F)c1
output: 4.68

input: Next entry: CNCc1ccc2c(c1)[C@@H](NC(=O)C(=O)Nc1ccc(Cl)c(F)c1)[C@H](CNC(=N)N)C2
output: 4.06
